Reported duplex melting temperature by item:
test: duplex melting temperature (HRM, EvaGreen); higher = more stable duplex; conditions: duplex concentration 10 µM; backbone: PS-PS (both strands fully phosphorothioate)

| recordSequence | duplex melting temperature |
| --- | --- |
| AGCACGGTGGTACAACA | 57.9 °C |
| CTGTAAGGCGATATGTT | 53.2 °C |
| CCGCTCAGAGTAGAGA | 56.7 °C |
| AGACATCCCATACGAGCATCCA | 64.4 °C |
| TCTACACCGCGA | 52 °C |
| AGCTGAGCCTGCCGCC | 68.2 °C |
| TGCCATGTTGAAAACC | 50.7 °C |
| CGATTTTGTCAAGCCT | 52.4 °C |
| GATTGTATCATCGACATCACACTACC | 61.5 °C |
| CTCGGAGGCCCCATTTA | 63.3 °C |
| GCTGTGAAACAATGTAG | 49.1 °C |
| AGAGCGCCCTGCTGCC | 68.2 °C |
| TTTGGGTTAGTAAGAAGGCAGCAGTTGGGC | 68.9 °C |
| CTAAACTGTTATAGCCGG | 53.4 °C |
| CCGTTGCTGCTAGG | 57.4 °C |
| GTGAGCAGAAGGGGTT | 59 °C |
| GTCATTGTGCTTTTGC | 50.6 °C |
| AGGAGTGAATGAAATGG | 50.3 °C |
| GAACTGCCACTACCAA | 56.7 °C |
| GAGGCAGCCGCGACCTG | 70.6 °C |
| ATAACTTACTCTCGCCT | 55.2 °C |
| CGCGCGAGTATTTATAACCT | 58.3 °C |
| CTACCAGCGGCGCCGTT | 71 °C |
| GTGGTACAAATGCGACC | 56.6 °C |
| CAAGCCTCGATTTTGT | 54.6 °C |
| GCCCGAGCATGACTGCG | 65.1 °C |
| CTCAGAGTAGAGCCGA | 57.4 °C |
| GATGCCGCAGCGACCTG | 68.3 °C |
| GCGGTTGGTGGCCAAC | 63.5 °C |
| TATTCTGCCAATGGAAC | 52.2 °C |
| TTGAAAACCCATGTGC | 51.5 °C |
| CACAGCGACATGTATGG | 57.7 °C |
| GAGCAGAAGGGGTTGT | 58 °C |
| CGACATGTATGGCACAG | 56.7 °C |
| CGTGTGGATAATTAGCT | 51.9 °C |
| TGTCGCACCCTACTA | 58.5 °C |
| GAACCGTTGATGATCTC | 53.9 °C |
| TTAACCTGCAATGGATC | 52.8 °C |
| GTGAAACAATGCTGTAG | 50.5 °C |
| ACGGGTCGTTCCGTG | 60.7 °C |
| GATCTCTCTATCATCGTTTATTGGGTAT | 59.9 °C |
| CCACTAGCGGCGCCGTT | 69.5 °C |
| TTGTAGTTGACGTTTGTGATTTAGTGAATT | 61.5 °C |
| CGTGCAGCACTACTTG | 57.9 °C |
| TAGACGCGGCCTCTTTCC | 67.4 °C |
| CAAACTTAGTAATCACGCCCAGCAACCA | 67.3 °C |
| ACATGACTCATCTTAGCCGGCGAG | 68.6 °C |
| GGTGGCGTTCTT | 51.3 °C |
| CGGGATTTCTGGCATCATTGTCCT | 65 °C |
| TCTCGCGGTTCCATTA | 59.4 °C |
| TTCTACATCCATCTTAATCCCA | 56.3 °C |

* * *

assay: duplex melting temperature (HRM, EvaGreen); higher = more stable duplex; settings: duplex concentration 15 µM; backbone: PS-PO (listed strand fully phosphorothioate, complement phosphodiester)
Label Met when duplex melting temperature >= 70 °C; otherwise Not met.

| recordSequence | group |
| --- | --- |
| CGTGTGGATAATTAGCT | Not met |
| GCCCGAGCATGACTGCG | Met |
| GTGAAACAATGCTGTAG | Not met |
| CACAGCGACATGTATGG | Not met |
| TATTCTGCCAATGGAAC | Not met |
| GAGCAGAAGGGGTTGT | Not met |
| TTGAAAACCCATGTGC | Not met |
| AATGAGGAGTGAAATGG | Not met |
| ACGGGTCGTTCCGTG | Not met |
| CTACCAGCGGCGCCGTT | Met |
| GTCATTGTGCTTTTGC | Not met |
| GAACTGCCACTACCAA | Not met |
| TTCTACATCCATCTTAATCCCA | Not met |
| CCACTAGCGGCGCCGTT | Met |
| AACGAATGTCAGCAATT | Not met |
| ACTGTATCGCCCTA | Not met |

* * *

experiment: duplex formation enthalpy ΔH (Van't Hoff fit of HRM Tm); higher = less exothermic duplex formation; conditions: temperature for dG: 50 °C; NaCl: 500 mM (unadjusted); backbone: PO-PO (both strands phosphodiester DNA)
Measured duplex formation enthalpy ΔH of individual entries
measuredProperty: duplex formation enthalpy ΔH (kcal/mol)

| recordSequence | measuredProperty | experimentalResult |
| --- | --- | --- |
| CTGTAAGGCGATATGTT | duplex formation enthalpy ΔH | -77.7 |
| TGCCATGTTGAAAACC | duplex formation enthalpy ΔH | -79.2 |
| CTCAGAGTAGAGCCGA | duplex formation enthalpy ΔH | -70.2 |
| TGTAAGACTTCTGCCAGAAA | duplex formation enthalpy ΔH | -126 |
| AATGAGGAGTGAAATGG | duplex formation enthalpy ΔH | -73.5 |
| GCAGGAGCCGCGACCTG | duplex formation enthalpy ΔH | -100 |
| GAACTGCCACTACCAA | duplex formation enthalpy ΔH | -69.8 |
| GTGAAACAATGCTGTAG | duplex formation enthalpy ΔH | -76.6 |
| GCTGTGAAACAATGTAG | duplex formation enthalpy ΔH | -82.5 |
| TTAACCTGCAATGGATC | duplex formation enthalpy ΔH | -68.7 |
| GCGGTTGGTGGCCAAC | duplex formation enthalpy ΔH | -87 |
| CTCGGAGGCCCCATTTA | duplex formation enthalpy ΔH | -68.7 |
| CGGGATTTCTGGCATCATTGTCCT | duplex formation enthalpy ΔH | -126 |
| CACAGCGACATGTATGG | duplex formation enthalpy ΔH | -84.1 |
| TCTACACCGCGA | duplex formation enthalpy ΔH | -54.3 |
| CTAAACTGTTATAGCCGG | duplex formation enthalpy ΔH | -83.8 |
| CCCAGGCCTCGGATTTA | duplex formation enthalpy ΔH | -80.8 |
| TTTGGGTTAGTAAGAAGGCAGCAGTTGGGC | duplex formation enthalpy ΔH | -194 |
| ACTCGCTCTACCTTAAT | duplex formation enthalpy ΔH | -68.3 |
| GGTTGCGGTGGCCAAC | duplex formation enthalpy ΔH | -83.4 |
| CCACTAGCGGCGCCGTT | duplex formation enthalpy ΔH | -97 |
| CTTTTGTGCGGGTAGC | duplex formation enthalpy ΔH | -70.2 |
| AGGAGTGAATGAAATGG | duplex formation enthalpy ΔH | -69.7 |
| CGGTGCTTTTGGTAGC | duplex formation enthalpy ΔH | -78.9 |
| TACTTCCAACGTAGG | duplex formation enthalpy ΔH | -62.5 |
| TTGAAAACCCATGTGC | duplex formation enthalpy ΔH | -69.1 |
| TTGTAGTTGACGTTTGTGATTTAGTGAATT | duplex formation enthalpy ΔH | -186 |
| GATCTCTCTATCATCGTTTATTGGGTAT | duplex formation enthalpy ΔH | -141 |
| ACGGGTCGTTCCGTG | duplex formation enthalpy ΔH | -68.9 |
| TCTCGCGGTTCCATTA | duplex formation enthalpy ΔH | -61.4 |
| ATAACTTACTCTCGCCT | duplex formation enthalpy ΔH | -77.8 |
| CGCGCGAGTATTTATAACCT | duplex formation enthalpy ΔH | -138 |
| CAAGCCTCGATTTTGT | duplex formation enthalpy ΔH | -72.5 |
| GAACCGTTGATGATCTC | duplex formation enthalpy ΔH | -80.1 |
| GTGGTACAAATGCGACC | duplex formation enthalpy ΔH | -88 |
| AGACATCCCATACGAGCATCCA | duplex formation enthalpy ΔH | -112 |
| CCGTTGCTGCTAGG | duplex formation enthalpy ΔH | -67.8 |
| TATTCTGCCAATGGAAC | duplex formation enthalpy ΔH | -79.9 |
| AGCACGGTGGTACAACA | duplex formation enthalpy ΔH | -71.3 |
| CGTGTGGATAATTAGCT | duplex formation enthalpy ΔH | -83.9 |
| CGACATGTATGGCACAG | duplex formation enthalpy ΔH | -77.2 |
